- target under test: UniProtKB P14902
- Sequence (P14902 whole entry): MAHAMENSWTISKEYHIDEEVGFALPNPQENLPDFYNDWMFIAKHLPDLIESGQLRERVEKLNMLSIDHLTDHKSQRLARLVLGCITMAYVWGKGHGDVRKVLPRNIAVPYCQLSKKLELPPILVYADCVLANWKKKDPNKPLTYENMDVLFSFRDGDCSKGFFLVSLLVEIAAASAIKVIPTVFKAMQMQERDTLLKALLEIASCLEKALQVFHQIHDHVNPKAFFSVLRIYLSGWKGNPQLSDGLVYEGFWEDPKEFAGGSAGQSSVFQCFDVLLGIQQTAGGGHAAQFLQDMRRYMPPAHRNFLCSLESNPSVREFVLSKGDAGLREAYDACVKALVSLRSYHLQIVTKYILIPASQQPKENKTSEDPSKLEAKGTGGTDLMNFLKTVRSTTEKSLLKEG
- assay summary: cell-based
With a cut-off of 5 µM, any EC50 strictly below it is called 1; any EC50 meeting it or above is called 0.

compound="Fc1cc(F)cc(C2c3ccccc3-c3cncn32)c1 (centres unmarked)" target_under_test="UniProtKB P14902" discrete_label=1
compound="NS(=O)(=O)c1cccc(C2c3ccccc3-c3cncn32)c1 (single isomer, unassigned) [Example 07b]" target_under_test="UniProtKB P14902" discrete_label=0
compound="CS(=O)(=O)N1CCC2(CC1)CC(C1c3ccccc3-c3cncn31)C2 (centres unmarked)" target_under_test="UniProtKB P14902" discrete_label=1
compound="NC(=O)C1CCC(C2c3ccccc3-c3cncn32)CC1 (single isomer, unassigned) [Example 60c]" target_under_test="UniProtKB P14902" discrete_label=0
compound="CC(C)CC1c2ccccc2-c2cncn21 (centres unmarked) [Example 53, 5-isobutyl-5H-imidazo[5,1-a]isoindole]" target_under_test="UniProtKB P14902" discrete_label=1
compound="Cc1cccc(C2c3ccccc3-c3cncn32)c1 (centres unmarked) [Example 21, 5-(m-tolyl)-5H-imidazo[5,1-a]isoindole]" target_under_test="UniProtKB P14902" discrete_label=0
compound="c1ccc2c(c1)-c1cncn1C2C1CCOCC1 (centres unmarked)" target_under_test="UniProtKB P14902" discrete_label=0
compound="CS(=O)(=O)N1CC2CC(C3c4ccccc4-c4cncn43)CC2C1 (centres unmarked) [Example 75a]" target_under_test="UniProtKB P14902" discrete_label=0
compound="C1=C(C2c3ccccc3-c3cncn32)CCn2cccc21 (centres unmarked)" target_under_test="UniProtKB P14902" discrete_label=0
compound="CS(=O)(=O)C1CCC(C2c3ccccc3-c3cncn32)CC1 (single isomer, unassigned) [Example 83b]" target_under_test="UniProtKB P14902" discrete_label=1
compound="Cn1cc(C2c3ccccc3-c3cncn32)ccc1=O (single isomer, unassigned) [Example 84b]" target_under_test="UniProtKB P14902" discrete_label=0
compound="Fc1cc(Cl)cc(C2c3ccccc3-c3cncn32)c1 (centres unmarked)" target_under_test="UniProtKB P14902" discrete_label=1

###

- target under test: TDO2 (Homo sapiens)
- Sequence (P48775 whole entry): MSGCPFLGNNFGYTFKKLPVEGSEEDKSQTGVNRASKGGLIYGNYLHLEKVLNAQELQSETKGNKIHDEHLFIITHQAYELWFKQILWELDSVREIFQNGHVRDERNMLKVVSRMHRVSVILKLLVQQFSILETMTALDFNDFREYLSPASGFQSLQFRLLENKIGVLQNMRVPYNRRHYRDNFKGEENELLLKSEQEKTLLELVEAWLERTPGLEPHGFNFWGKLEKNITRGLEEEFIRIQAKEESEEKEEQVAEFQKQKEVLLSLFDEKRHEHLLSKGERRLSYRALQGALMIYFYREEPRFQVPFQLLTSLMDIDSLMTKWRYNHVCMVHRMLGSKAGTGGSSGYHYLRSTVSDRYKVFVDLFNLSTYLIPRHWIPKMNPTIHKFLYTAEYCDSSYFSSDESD
- assay summary: cell-based
measure name: EC50 (nM)

compound="Cn1cc(C2c3ccccc3-c3cncn32)cn1 (single isomer, unassigned) [Example 79b]" measure_name=EC50 test_result=530
compound="Fc1cccc(C2c3ccccc3-c3cncn32)c1 (stereo not drawn) [Example 30]" measure_name=EC50 test_result=340
compound="Cn1ncc2cc(C3c4ccccc4-c4cncn43)ccc21 (stereo not drawn) [Example 55b]" measure_name=EC50 test_result=780
compound="C[C@H](O)c1cccc([C@H]2c3ccccc3-c3cncn32)c1 [Example 10a]" measure_name=EC50 test_result=320
compound="CC(C)CC1c2ccccc2-c2cncn21 (stereo not drawn) [Example 53, 5-isobutyl-5H-imidazo[5,1-a]isoindole]" measure_name=EC50 test_result=870
compound="c1ccc2c(c1)-c1cncn1C2c1ccncc1 (stereo not drawn) [Example 41]" measure_name=EC50 test_result=2500
compound="Cn1cc(C2c3ccccc3-c3cncn32)ccc1=O (single isomer, unassigned) [Example 84a]" measure_name=EC50 test_result=7100
compound="OCc1cc(F)cc(C2c3ccccc3-c3cncn32)c1 (single isomer, unassigned) [Example 09a]" measure_name=EC50 test_result=690
compound="c1ccc2c(c1)-c1cncn1C2C1CCC2(CC1)OCCO2 (stereo not drawn) [Example 26]" measure_name=EC50 test_result=3200
